# IC50 per record follows
- System tested: hTRPA1 (Homo sapiens, UniProt O75762, K186N)
- Construct: expressed in transfected cells; host or cells: HEK293/TREx (Invitrogen), induced with tetracycline
- Sequence (O75762 whole entry K186N): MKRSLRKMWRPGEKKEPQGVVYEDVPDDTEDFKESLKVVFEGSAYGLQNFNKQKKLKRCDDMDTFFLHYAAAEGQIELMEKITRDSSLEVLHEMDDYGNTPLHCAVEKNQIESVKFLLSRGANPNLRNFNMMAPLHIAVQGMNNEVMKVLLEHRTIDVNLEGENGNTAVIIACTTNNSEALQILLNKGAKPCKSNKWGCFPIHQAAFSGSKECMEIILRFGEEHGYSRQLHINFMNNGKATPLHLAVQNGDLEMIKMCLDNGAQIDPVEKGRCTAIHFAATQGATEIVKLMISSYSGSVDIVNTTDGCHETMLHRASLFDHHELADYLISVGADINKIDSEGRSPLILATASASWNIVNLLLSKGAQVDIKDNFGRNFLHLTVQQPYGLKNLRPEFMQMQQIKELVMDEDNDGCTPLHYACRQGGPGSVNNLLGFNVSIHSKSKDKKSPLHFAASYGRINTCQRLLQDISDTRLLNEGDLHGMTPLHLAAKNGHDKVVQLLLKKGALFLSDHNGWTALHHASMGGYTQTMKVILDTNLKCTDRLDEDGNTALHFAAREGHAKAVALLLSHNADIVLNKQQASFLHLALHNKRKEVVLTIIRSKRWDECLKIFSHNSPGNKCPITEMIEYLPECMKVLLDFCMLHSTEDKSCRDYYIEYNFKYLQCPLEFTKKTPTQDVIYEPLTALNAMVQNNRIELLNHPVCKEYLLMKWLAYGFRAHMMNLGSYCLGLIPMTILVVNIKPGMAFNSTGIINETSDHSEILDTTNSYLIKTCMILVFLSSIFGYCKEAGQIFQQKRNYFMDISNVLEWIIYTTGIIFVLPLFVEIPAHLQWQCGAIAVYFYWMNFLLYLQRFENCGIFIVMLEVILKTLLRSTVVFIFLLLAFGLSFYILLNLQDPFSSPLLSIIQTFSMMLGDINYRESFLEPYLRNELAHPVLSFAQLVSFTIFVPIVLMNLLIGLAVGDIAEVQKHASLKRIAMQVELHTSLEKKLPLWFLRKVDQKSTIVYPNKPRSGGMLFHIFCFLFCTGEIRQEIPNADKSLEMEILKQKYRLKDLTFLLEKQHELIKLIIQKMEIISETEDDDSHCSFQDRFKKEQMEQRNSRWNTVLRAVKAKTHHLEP
- Assay protocol: High throughput Ca2+ fluorescence (Fluo4) assay, AITC stimulation
- Format: cell-based
- Test parameters: Table 1; read-out: hTRPA1 Fluo4 IC50
Parameter measured: IC50

[[record]]
molecule = "CCN(CC)C(=O)C1=C(C)NC(=S)NC1c1ccccc1OC (centres unmarked)"
parameter_measured = "IC50"
test_value = "> 10 µM"

[[record]]
molecule = "CCCOC(=O)C1=C(C)NC(=O)NC1c1cccc2ccccc12 (centres unmarked)"
parameter_measured = "IC50"
test_value = "> 10 µM"

[[record]]
molecule = "COC(=O)C1=C(c2ccccc2)NC(=S)NC1c1ccccc1 (centres unmarked)"
parameter_measured = "IC50"
test_value = "≤ 5 µM"

[[record]]
molecule = "COC(=O)C1=C(C)NC(=O)NC1c1ccc2ccccc2c1 (centres unmarked)"
parameter_measured = "IC50"
test_value = "> 10 µM"

[[record]]
molecule = "CCOC(=O)C1=C(C)NC(=O)NC1c1ccc(SC)cc1 (centres unmarked)"
parameter_measured = "IC50"
test_value = "> 10 µM"

[[record]]
molecule = "CC1=C(C(=O)OC(C)(C)C)C(c2cccc(Cl)c2)NC(=O)N1 (centres unmarked)"
parameter_measured = "IC50"
test_value = "> 10 µM"

[[record]]
molecule = "CCCOC(=O)C1=C(C)NC(=O)NC1c1cccc(Cl)c1 (centres unmarked)"
parameter_measured = "IC50"
test_value = "> 10 µM"

[[record]]
molecule = "COC(=O)C1=C(C)N(C)C(=O)NC1c1cccc(C)c1 (centres unmarked)"
parameter_measured = "IC50"
test_value = "> 10 µM"

[[record]]
molecule = "CC1=C(C(=O)OCC(Cl)(Cl)Cl)C(c2ccccc2)NC(=O)N1 (centres unmarked)"
parameter_measured = "IC50"
test_value = "> 10 µM"

[[record]]
molecule = "C=CCOC(=O)C1=C(C)NC(=O)NC1c1ccc(C)cc1 (centres unmarked)"
parameter_measured = "IC50"
test_value = "≤ 5 µM"

[[record]]
molecule = "COC(=O)C1=C(C)N(C)C(=O)NC1c1cccc(Cl)c1 (centres unmarked)"
parameter_measured = "IC50"
test_value = "> 10 µM"


----------
- System tested: hTRPA1 (Homo sapiens, UniProt O75762, K186N)
- Construct: expressed in transfected cells; host or cells: HEK293/TREx (Invitrogen), induced with tetracycline
- Assay protocol: High throughput Ca2+ fluorescence (Fluo4) assay, AITC stimulation
- Format: cell-based
- Test parameters: Table 1; read-out: hTRPA1 Fluo4 IC50
Parameter measured: IC50

[[record]]
compound = "CCCC1=C(C(=O)OCC)C(c2ccc(C(F)(F)F)cc2)NC(=O)N1C (centres unmarked)"
parameter_measured = "IC50"
test_value = "> 10 µM"

[[record]]
compound = "C=CCOC(=O)C1=C(C)NC(=S)NC1c1ccccc1OCC (centres unmarked)"
parameter_measured = "IC50"
test_value = "> 10 µM"

[[record]]
compound = "CCOC(=O)C1=C(CN2CCc3ccccc32)NC(=O)NC1c1ccc(Cl)cc1 (centres unmarked)"
parameter_measured = "IC50"
test_value = "≤ 10 µM"

[[record]]
compound = "CCOC(=O)C1=C(C)NC(=S)NC1c1ccccc1C (centres unmarked)"
parameter_measured = "IC50"
test_value = "≤ 5 µM"

[[record]]
compound = "COC(=O)C1=C(C)N(C)C(=O)NC1c1ccccc1C (centres unmarked)"
parameter_measured = "IC50"
test_value = "> 10 µM"

[[record]]
compound = "CC1=C(C(=O)Nc2ccccc2)C(c2ccccc2)NC(=S)N1 (centres unmarked)"
parameter_measured = "IC50"
test_value = "≥ 30 µM"

[[record]]
compound = "COC(=O)C1=C(C)NC(=O)NC1c1ccc(F)c(Br)c1 (centres unmarked)"
parameter_measured = "IC50"
test_value = "> 10 µM"

[[record]]
compound = "CCOC(=O)C1=C(c2ccccc2)NC(=S)NC1c1cccc(OC)c1OC (centres unmarked)"
parameter_measured = "IC50"
test_value = "> 10 µM"

[[record]]
compound = "CC1=C(C(=O)Nc2ccc(Br)cc2)C(c2ccccc2)NC(=O)N1C (centres unmarked)"
parameter_measured = "IC50"
test_value = "> 10 µM"

[[record]]
compound = "CC1=C(C(=O)OC(C)C)C(c2ccc(Cl)cc2)NC(=O)N1 (centres unmarked)"
parameter_measured = "IC50"
test_value = "> 10 µM"

[[record]]
compound = "C=CCOC(=O)C1=C(C)NC(=S)NC1c1cccc(OC)c1 (centres unmarked)"
parameter_measured = "IC50"
test_value = "≤ 10 µM"

[[record]]
compound = "CCOC(=O)C1=C(c2ccccc2)NC(=S)NC1c1ccc(OCC)cc1 (centres unmarked)"
parameter_measured = "IC50"
test_value = "> 10 µM"

[[record]]
compound = "CCOC(=O)C1=C(C)N(CC)C(=O)NC1c1ccccc1Cl (centres unmarked)"
parameter_measured = "IC50"
test_value = "≥ 20 µM"

[[record]]
compound = "CC1=C(C(=O)OC2CCCCCC2)C(c2cccc(Cl)c2)NC(=O)N1 (centres unmarked)"
parameter_measured = "IC50"
test_value = "> 10 µM"

[[record]]
compound = "C=CCOC(=O)C1=C(C)NC(=O)NC1c1c(Cl)cccc1Cl (centres unmarked)"
parameter_measured = "IC50"
test_value = "> 10 µM"

[[record]]
compound = "COC(=O)C1=C(C)NC(=O)NC1c1ccc(O)cc1 (centres unmarked)"
parameter_measured = "IC50"
test_value = "> 10 µM"

[[record]]
compound = "CCN1C(=O)NC(c2ccc(Cl)cc2Cl)C(C(=O)OC)=C1C (centres unmarked)"
parameter_measured = "IC50"
test_value = "> 10 µM"

[[record]]
compound = "CC1=C(C(=O)OC(C)C)C(c2c(Cl)cccc2Cl)NC(=O)N1 (centres unmarked)"
parameter_measured = "IC50"
test_value = "> 10 µM"

[[record]]
compound = "CCOC(=O)C1=C(c2ccccc2)NC(=S)NC1c1cc(O)ccc1Br (centres unmarked) [drawing 49]"
parameter_measured = "IC50"
test_value = "≤ 1 µM"

[[record]]
compound = "COC(=O)C1=C(C)NC(=S)NC1c1ccc(OC)c(Br)c1 (centres unmarked)"
parameter_measured = "IC50"
test_value = "≤ 5 µM"

[[record]]
compound = "COC(=O)C1=C(C)N(C)C(=O)NC1c1cccc(Br)c1 (centres unmarked)"
parameter_measured = "IC50"
test_value = "≤ 5 µM"

[[record]]
compound = "CC1=C(C(=O)N(C)C)C(c2c(F)cccc2Cl)NC(=S)N1 (centres unmarked)"
parameter_measured = "IC50"
test_value = "> 10 µM"

[[record]]
compound = "CCC(C)OC(=O)C1=C(C)NC(=O)NC1c1ccc(F)c(Br)c1 (centres unmarked)"
parameter_measured = "IC50"
test_value = "> 10 µM"


The origin of these recorded values is patent US7671061B2.
